Assay: yeast display, Sf9 membrane polyspecificity reagent, FACS + sequencing; frameworks hold sequencing errors
QUANTITY_MEASURED: polyreactivity (PSR sort gate)

INSERT INTO assay_data (biosequence, result) VALUES
  ('QVQLVESGGGLVQAGGSLRLSCAASGSTFSKNAMAWYRQAPGKERELVASISSSGGSTYYADSVKGRFTISRDTAKNTVYLQLNSLKPEDTAVSYCATRRGRGYYYWGQGTQVTVSS', 'high polyreactivity'),
  ('QVQLVESGGGLVQAGGSLRLSCAASGSTFEVYTMGWSIQSPGKVRELVATISGDDGSTYYADSVKGRFTISRDNAKNTVYLQMNSLKPEDTAVYYCAADYGGFPNYYSTGDYWGQGTQVTVSS', 'low polyreactivity'),
  ('QVQLVESGGGLVQAGGSLRLSCAASGRTLGKYAMGWYRQAPGKERELVAAIRWTGGNTYYADSVKGRFTISRDNAKNTVYLQMNSLKPEDTAVYYCAAAYWNDWSQYDYWGQGTQVTVSS', 'high polyreactivity'),
  ('QVQLVESGGGLVQAGGSLSLSCAASGRTFRVYAMGSYRQSPRKERELVAAITNGGSTNYADSVKGRFTISRDNAKNTVYLQMNSLKPEDTAVYYCARVHRSYVAAQGVYVGNYYWGQGTQVTVSS', 'high polyreactivity'),
  ('QVQLVESGGGLVQAGGSLRLSCASSGRTFRGYVMGWYRQAPGKERELVASISYSGGSTYYADSVKGRFTISRDNAKNTVYLQMNSLKPEDTAVYYCAARKGYDQYRWRYSQNNYWGQGTQVTVSS', 'high polyreactivity'),
  ('QVQLVESGGGLVQAGGSLRLSCAASGRIVGYAMGWYRQAPGKERELVAAITGSTGSTYYADSVKGRFTISRDNAKNTVYLQMNSLKPEDTAVYYCATKYGRYVYYNHVTWMYYWGQGTQVTVSS', 'high polyreactivity'),
  ('QLHLQVSGGGLVQAGGSLRLSCAASGSIFLTSEKGWYRQAPGKERELVAAIATGTSTNYADSVKGRFTISRDNAKNTVYLQLNSLKPEDTAVYYCATYDYWGQGTKVTVSS', 'low polyreactivity'),
  ('QVQLVESGGGLVLAGGSLRLSCASSGRTFPSYAKGWYRQAPGKERELVAAITRGGSTNYADSVKGRFTISRDNAKNTVYLQMNSLKPEDTAVYYCAAARWRWQLARDDYWGQGTQVTVSS', 'high polyreactivity'),
  ('QVQLVESGGGLVQAGGILRLSCAAYGRTSSYTMGWDIQANGQERELVAAITRRGGSTYYADSVKGRFTISRDHAKNSVYLQMNSLKPEDTAVYYCAASYRGEYDYWGQGTQVTVSS', 'high polyreactivity'),
  ('QVQLVESGGGLVQAGGSLRLSCAASGSNYSGYAMGWARQAPGKERELVAAITKSGGRTYYADSVKGRFTISRDNAKNTVYLQMNSLKPEDTAVYYCAKAYPGTYREYDYWGQGTQVTVSS', 'high polyreactivity'),
  ('QVQLVESGGGLVQAGGSLRLSCAASGSIFLHNAMGWYRQAPGKERELVAAISGTGGRTYYADSVKGRFTISRDNAKNTVYLQMNSLKPEDTAVYYCAKTLRDPYRYDYWGQGTQVTVSS', 'high polyreactivity'),
  ('QVQLVESGGGLVQAGGSLRLSCAASGRIFDHYAMGWYRQAPGKERELVAAITRSGGITYYADSVKGRFTISRDNAKNTVYLQMNSLKPEDTAVYYCAALSYRYTDKFDYWGQGTQVTVSS', 'low polyreactivity'),
  ('QVQLVESGGGLVQAGGTLRLSCAASGRTFTIYAMGWYRQAPGKEREWVAAITSGGSSYYADSVKGRFTISRDNATKTDYLQMNSLKPEDTAVEYCARGYAVSLVSRYYYWGQGTQVTVSS', 'low polyreactivity'),
  ('QVQLEESGGGLVQAGGSLRLSSAASGRIYTKNAMGRYRHAPGKERELVAAITTSGGSTYYADSVKGRFTISRDNAKNSVYLQMKSLKPEDTAVYYCAAERYNGYDYWGQGTQVSVSS', 'high polyreactivity'),
  ('QVQLVESGGGLVQAGGSLRLSCAASGRIFKSYAMGWYRQSPGKERELVAIIRSSGTTYYADSVKGRFTISRDNAKNTVYLQMNSLKPEDTAVYYCAADPYYWRQFNYDYWGQGTQVTVSS', 'high polyreactivity'),
  ('QVQLVESGGGLVQAGGSLRLSCAASGSTFYVNAMGWYRQAPGKDRELVAVISTGGSTYYADSVKGRFTISRDNAKNTVYLQMNSLKPEDTAVYYCAKRDLPDRSGTPNVIPFDYWGQGTQVTVSS', 'low polyreactivity'),
  ('QVQLVDSGGGLVQAGGSLRLSCAASGSIFHVYAMGWYRQAPGKERELFAAIDRSGGSTYYADSVKGRFTISRDNAKNTVYLQMNSLKPEDTAVFYCAKDVLGGLITDGVGNDYWGQGTQLTVSS', 'low polyreactivity'),
  ('QVQLVESGGGLVQAGGSLRLSCAASGSIFSVYAMGWYRQAPGKERELVAAITSGTSTYADSVKGRFTISRDNAKNTVYLQMNSLKPEDTAVYYCAAEFLWIVDYWGQGTQVTVSS', 'low polyreactivity'),
  ('QVQLVESGGGLVQAGGSLRLSCAASGIIFTRYVMGWYRQAPGKERELVATIRIGGSTTYADSVKGRFTISRDNAKNTVYLQMNSLKPEDTAVYYCAADTWYITTYGGAGSYAYGFYYWGQGTQVTVSS', 'low polyreactivity'),
  ('QVQLVESGGGLVQAGGSLRLSCAASGIIFQRNDMGWYRQAPGKERELVANIRDGGITYADSVKGRFTISRDNAKNTVYLQMNSLKPEDTAVYYCARDDTSPGYGDQSFNAAYYYWGQGTQVTVSS', 'low polyreactivity'),
  ('QDQLVESGGGLVQAGGSLRLSCAASGFIFVVYAMGWYTQAPGKERELVAAITYSGGSTYYADSVKGRFTISRDNAKNTVDLQMNSLKPEDTAVYYCAAPEHDREFDYWGQGTQVTVSS', 'low polyreactivity');

====

Test: yeast display, Sf9 membrane polyspecificity reagent, FACS + sequencing; frameworks hold sequencing errors
QUANTITY_MEASURED: polyreactivity (PSR sort gate)

INSERT INTO assay_data (biosequence, result) VALUES
  ('QVQLVESGGGLVQAGGSLRLSCADSGSTFRYYAMGWYRQAPGKERELVAAITKNGGSTYYADSVKGRFTISRDNAKNTVYLEMNSLKPEDTAVYYCAVQFSYSGWYYVSYYYWGQGTQVTVSS', 'high polyreactivity'),
  ('QVQLVESGGGLVQAGGSLRLSCAASGNTFPFNAMGWYRQAPGKERELVAAISRGGSTYYADSVKGRFTISRDNAKNTVYLQMNSLKPEDTAVYYCAVSAGKRRLDYWGQGTQVTVSS', 'high polyreactivity'),
  ('QVQLVESGAGLVQAGGSLRLSCAASGNTFGTYAMGGSRQAPGKERELVASISKRAGSTYYADSVKGRFTISRDNAKNTVYLQMNSLKPEDTAVYYCAASSWDTFDYWGQGTQVTVSS', 'high polyreactivity'),
  ('QVQLVESGGGLVQAGGSLRLSCAASGRTFAFYAMGWYRPAPGKERELVASIRGGGGTNYADSVKGRFTISRDNAKNPVYLQMNSVKPEDTAVYYCAARGYGYRGYYYWGQGTQVTVSS', 'high polyreactivity'),
  ('QVQLVESRGGLVQAGGSLRLICAASGFILDTSAMGWYRQAPGKERALVAAISASGSSTYYADSVKGRFTISRDNAKNTLYLQMNSLKPEDTAVNYCAAKDTGYGYGFPRLDYWGQGTQVNVSS', 'low polyreactivity'),
  ('QVQLVESGGGLVQAGGSLRLSCAASGSIFNGYVMGWYRQAPGKERELVASINRGGTTNYADSVKGRFTISRDNAKNTVYLQMNSLKPEDTAVYYCAVDDDANSLGGYYVLFDYWGQGTQVTVSS', 'low polyreactivity'),
  ('QVQLVESGGGLVQAGGSLRLSCAASGSIFYYYAMGWYRQAPGKERELVAANDFGGGSTYYADSVKGRFTISRDNAKNTVYLQMNSLKPEDTAVYYCAARTFKDAGSAYGSWGQGTQVTVSS', 'high polyreactivity'),
  ('QVQLVESGGGLFQAGGSLRLSCAPSGRIFTTYAMGWYRQAPGKDRELVAAISRSGGSSYYADSVKGRFTISRDNAKNTVYLQMKSLKQEDTAVYFCAAVPTSNSFRSSFYNWGQGTQVTVSS', 'high polyreactivity'),
  ('QVQLVESGGGLVQAGGSLRLSCAASGFIFRTNAMGRYRQAPGKEREFVAAIRWSGGSTYYADSVKGRFTISRDNAKKTVYLQMNSLKPEDTAVYYCAAEIYLSTYFYPHSIYDYWGQGTQVTVSS', 'high polyreactivity'),
  ('QVQLVESGGGLVQAGGSLRLSGAASGSTFRRNAMGWSRQAPGKERELVAAISRRGGRTYYADSVKGRFTISRDNAKNTVYLQLNSLKPEDTAVYYCAADVIYSGDYWGQGTQVTVSS', 'high polyreactivity'),
  ('QVQLVESGGGLVQAGGSLRLSCAAAGSTFSYYTMGWYRQAPGKERELVAAITRSGGRTYYADSVKGRFTISRDNAKYTVYLQMNSLKPEDTAVYYCAREYYPDWGQGTQVTVSS', 'high polyreactivity');
